B1: CPEB3 Ribozyme (parent)
chain: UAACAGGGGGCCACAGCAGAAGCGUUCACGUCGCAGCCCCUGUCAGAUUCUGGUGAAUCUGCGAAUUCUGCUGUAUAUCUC

variants of: B1; experiment: self-cleavage, relative activity (ratio to wild type); higher = more cleavage; in vitro, sequencing
Item-by-item account of self-cleavage
Give a plain numeric answer without units written out.

Examples from the recorded data:
{"Mutation Id": "U25C C29U", "self-cleavage": 0.47}
{"Mutation Id": "G7C U43C", "self-cleavage": 0.36}
{"Mutation Id": "A5C U54G", "self-cleavage": 0.81}
{"Mutation Id": "U1A C32U", "self-cleavage": 0.3}
{"Mutation Id": "A56U U66C", "self-cleavage": 0.32}

Prompt: Answer with the recorded self-cleavage of A56G U72G only.
Response: 0.63

Prompt: Answer with the recorded self-cleavage of C12U U25C only.
Response: 0.38

Prompt: Answer with the recorded self-cleavage of A2G G8U only.
Response: 0.11
